What Enzyme Activity Endpoint Assay: Fc was measured for each of the following?
target: pooled human IgG (human IgG1, 2, 3 and 4)
Numbers only, in ng/µL.

Examples with answers:
protein	reading
PRT-254 (protein) MVTSVWTKGVTPPTNFTYGEDVLHAPYVANQGWYDITKTFNGKDDLLCGAATAGNMLHWWFDQNKEQIENYLKKHPEKQKINFNGEQMFDVKEAIDTKDSQLDSKLFEYFLEKAFPNLSTKHLGVFPDHVIDMFINGYRLSLLNHGPTPVKRGSKDPRGGIFDAVFTRGDQSKLLTNRHDFKEKTLKEISDLIKQELTEGKALGISHTYANVRINHVINLWGADFDAEGNLEAIYVTDSDSNKSIGMKKYPVGVNSNGKVAISAKEIEEDNIGAQVLGLFTLSTGQDIWNQTN	359
PRT-533 (protein) MANQEIRYSSDSEWANKKVWVYGITPPEEGAWKYSTYYLPWKKEYGWYDCNKRNPTADGMMCWAATASNLLHWWIAQNKEYIDLYGDKYKGPDKINFNGEQMFDVKEYIDPLDKPQESDIFQCFIDKSFADLSTKHEAGYGDAGINWFIHGIIPSSPAHGPTPVKLDYPYNPAGYFKDVFPRGDGVVLLGNNGDFKELSKERFNETIKDALKNKKAIGLSIGPVNVRSSHVVTIWGAEFDENGDVSYIYMADNNDRWGVGCIRYQIVYEEGGTYTCYKTEIIPSDRPIPINRLVTLELGEEYWKQTNLEHHHHHH	0
PRT-474 (protein) MVTSVWTKGVTPPTDFRKIVDGNIAYYHAPYKAGQGWYDITKAFDGGDDLLCGAATAGNMLHWWFDQNKEQIENYLKKHPEKQKINFNGEQMFDVKEAIDTKDSQTNSELFNYFKEKAFPYLSTKHLGVFPDHVIDMFINGYRLSLTNHGPTPVKRGSKDPRGGIFDAVFTRGDQSKLLTNRHDLKNKTLKEISDLIKQELTEGKALGISHTYANVRINHVINLWGADFDAEGNLEAIYVTDSDSNASIGMKKYFVGVNSNGKVAISAKEIEEDNIGAQVLGLFTLSTGQDIWNQTNLEHHHHHH	156

Now consider the entry below.
**Q:** # query: Enzyme Activity Endpoint Assay: Fc of entry PRT-578 (protein) MANQEIRYSKATPKVITSVWTKGVTPPEDFTYNEDVFHAPYLPNQGWYDITKTFNGKDDLLCGAATAGNMLHWWFDQNKEQIERYLKEHPEKQKINFNGEQMFDVKEAIDTKDSQTNSKLFEYFKDKAFPYLSTKHLGVFPDHVIDMFINGYRLSLTNHGPTPVKEQNKDPRGGIFDAVFTRGDQSKLLTSRHDFKEKTLKEISDLIKQELKEGKALGLSHTYANVRINHVINLWGADFDAEGNLEAIYVTDSDSNASIGMKKYYVGVNSAGKVAISAKEIEGDNIGAQVLGLFTLSTGKDIWEQTNLEHHHHHH
**A:** 394

Entry source: patent US20250027068
